Ref: BigSolDB 2.1

Details: in acetone, 293.15 K
MEASURED_QUANTITY: solubility (mole fraction)

Fill blank: measured solubility (mole fraction) of the molecule CC[C@H](C)[C@H]1O[C@]2(C=C[C@@H]1C)C[C@@H]1C[C@@H](C/C=C(\C)[C@@H](O[C@H]3C[C@H](OC)[C@@H](O[C@H]4C[C@H](OC)[C@@H](O)[C@H](C)O4)[C@H](C)O3)[C@@H](C)/C=C/C=C3\CO[C@@H]4[C@H](O)C(C)=C[C@@H](C(=O)O1)[C@]34O)O2 is ____. 0.0119
